Would you kindly list MIC for each of these compounds?
Entry format: amount then unit.

Task: Print Str. faecalis, ATCC-19433 MIC for N[C@@H]1CN(c2cc3c(cc2F)c(=O)c(C(=O)O)cn3C2CC2)CC12CC2 [Compound 33b] .
Output: 0.2 µg/mL

Task: Print Str. faecalis, ATCC-19433 MIC for N[C@@H]1CN(c2nc3c(cc2F)c(=O)c(C(=O)O)cn3-c2ccc(F)cc2F)CC12CC2 [Compound 111b] .
Output: 0.39 µg/mL

Task: Print Str. faecalis, ATCC-19433 MIC for NC1CN(c2cc3c(cc2F)c(=O)c(C(=O)O)cn3-c2ccc(F)cc2F)CC12CC2 (stereo not drawn) [Compound 34] .
Output: 0.78 µg/mL
